Biological target: human orexin-2 receptor (Homo sapiens)
Construct: expressed in transfected cells; host or cells: CHO (Chinese hamster ovary) cells, kept under G418 selection
Sequence (O43614 whole entry): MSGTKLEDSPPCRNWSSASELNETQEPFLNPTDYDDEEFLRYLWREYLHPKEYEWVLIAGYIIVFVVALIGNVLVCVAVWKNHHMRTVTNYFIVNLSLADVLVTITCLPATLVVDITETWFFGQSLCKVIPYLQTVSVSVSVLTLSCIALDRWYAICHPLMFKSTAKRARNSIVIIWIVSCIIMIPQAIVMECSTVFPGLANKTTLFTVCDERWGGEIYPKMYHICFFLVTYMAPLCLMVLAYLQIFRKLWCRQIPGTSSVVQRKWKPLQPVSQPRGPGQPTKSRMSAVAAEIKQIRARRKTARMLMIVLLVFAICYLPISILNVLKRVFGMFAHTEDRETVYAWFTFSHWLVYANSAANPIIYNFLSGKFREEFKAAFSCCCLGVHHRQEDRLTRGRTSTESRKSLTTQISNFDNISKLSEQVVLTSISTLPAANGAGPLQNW
Assay: Intracellular calcium measurement (FLIPR Tetra), orexin receptor antagonistic activity, OX2
Type: cell-based
Settings: CHO cells expressing human orexin-2 receptor, 3 nM orexin-A, conditions B, normalized (*) using IC50 of on-plate reference compound
readout: IC50 (nM)
Please reply with the bare figure in nM and do not write the unit itself.

These solved cases illustrate the format of a correct answer.
[
  {
    "structure.smiles.string": "Cc1nc(C(=O)N(CCc2c[nH]c3ccc(F)cc23)CC2CC2)c(-c2ccc(CO)nc2)s1",
    "target": "human orexin-2 receptor (Homo sapiens)",
    "result.unit": "nM",
    "IC50": 53
  },
  {
    "structure.smiles.string": "Cc1nc(-c2ccc(Cl)cc2)c(C(=O)N(CCc2c[nH]c3ccc(F)cc23)CC2CC2)s1",
    "target": "human orexin-2 receptor (Homo sapiens)",
    "result.unit": "nM",
    "IC50": 470
  },
  {
    "structure.smiles.string": "COC(=O)CN(CCc1c[nH]c2ccc(F)cc12)C(=O)c1nccnc1-c1ccccc1",
    "target": "human orexin-2 receptor (Homo sapiens)",
    "result.unit": "nM",
    "IC50": 322
  }
]

Item: CCN(CCc1c[nH]c2ccccc12)C(=O)c1nccnc1-c1cccc(OC)c1 | IC50: 258

Item: CCN(CCc1c[nH]c2ccccc12)C(=O)c1cncnc1-c1ccc(Br)c(Cl)c1 | IC50: 9

Item: COc1ccc(-c2cccnc2C(=O)N(CCO)CCc2c[nH]c3ccc(F)cc23)cn1 | IC50: 848

Item: Cc1ccc(-c2nccnc2C(=O)N(CCc2c[nH]c3ccc(F)cc23)CC(F)F)cc1C | IC50: 136

Item: CCN(CCc1c[nH]c2ccccc12)C(=O)c1cncnc1-c1ccc(Cl)c(Cl)c1 | IC50: 15

Item: COc1ccc(-c2cccnc2C(=O)N(CCc2c[nH]c3cc(F)ccc23)CC2CC2)cn1 | IC50: 60

The origin of these recorded values is patent US20110212968A1.
